Assay: toxicity, maximal tolerated dose with oral administration
Settings: in vivo, rat
Endpoint Name: MTD

Known MTD results, listed for orientation:
Compound: O=C(O)CCC/C=C\[C@H]1[C@@H]2CC[C@@H](C2)[C@@H]1CNS(=O)(=O)c1cc(F)ccc1F [Formula(IV)]
MTD: > 2000 mg/kg
--
Compound: CC1(C)[C@H]2C[C@H](NS(=O)(=O)c3ccccc3)[C@@H](C/C=C\CCCC(=O)O)[C@@H]1C2 [formula (VI)]
MTD: > 2000 mg/kg

Then this compound:
The reported MTD of the compound O=C(O)CCC/C=C\[C@H]1[C@H]2CC[C@H](C2)[C@@H]1CNS(=O)(=O)c1ccccc1I [formula (I)] was > 2000 mg/kg
